B1: SLC25A39 (parent)
chain: LTSDLYAPMVAGALARLGTVTVIS

variants of: B1; assay: protein stability index of a GFP-peptide fusion (GPS, HEK-293T) (PSI 1-6); higher = more stable; conditions: c terminus: a fixed tail appended;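 further: lentivirally expressed fusions sorted by FACS into six bins by GFP to DsRed ratio, PSI derived from sequencing read proportions per bin multiplied by bin number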
Catalogue of variants with associated protein stability index
Give only the figure.

sequence-variant	reported-value
A13R	1.79
L1P	1.62
T2G	3.56
S3T	1.38
A13N	2.09
V22T	2.04

Indicate its recorded protein stability index; the variant in question is G12I
3.04

// fetch protein stability index given entry L1A
3.53

Return value of protein stability index for input L17S , no commentary.
2.51

Give protein stability index for L5Y
3.05

Fill in protein stability index for record A7S
2.38
